- Test system: Mycobacterium avium
- Experiment Summary: Antimycobacterial activity against Mycobacterium avium CNTC My 330/88 after 21 days
- Type: functional
- Experimental Setup: CNTC My 330/88, 504 h
Assay Metric: MIC

NNC(=O)c1ccncc1 : > 250 µM
O=C(N/N=C/Nc1ccc(Cl)cc1O)c1ccncc1 : 500 µM
O=C(N/N=C/Nc1ccc(Br)c(F)c1)c1ccncc1 : 250 µM
COc1ccc(N/C=N/NC(=O)c2ccncc2)cc1 : 500 µM
O=C(N/N=C/Nc1ccc(F)cc1)c1ccncc1 : 500 µM
O=C(N/N=C/Nc1cccc(F)c1)c1ccncc1 : 1000 µM
O=C(N/N=C/Nc1ccc(Cl)cc1)c1ccncc1 : 1000 µM
O=C(N/N=C/Nc1cccc(Cl)c1)c1ccncc1 : 1000 µM
O=C(N/N=C/Nc1ccc(C(F)(F)F)cc1)c1ccncc1 : 1000 µM
O=C(N/N=C/Nc1cccc(O)c1)c1ccncc1 : 500 µM

[Q] Requested field: MIC. Item: `O=C(N/N=C/Nc1ccc(O)cc1)c1ccncc1`
[A] 500 µM

[Q] Requested field: MIC. Item: `O=C(N/N=C/Nc1ccc(F)c(Cl)c1)c1ccncc1`
[A] 500 µM

[Q] Requested field: MIC. Item: `O=C(N/N=C/Nc1ccc(F)c(F)c1)c1ccncc1`
[A] 250 µM

[Q] Requested field: MIC. Item: `COc1cccc(N/C=N/NC(=O)c2ccncc2)c1`
[A] 500 µM

---

Collected MIC values appear next to each entry.
- Tested on: Mycobacterium kansasii
- Experiment Summary: Antimycobacterial activity against Mycobacterium kansasii CNTC My 335/80 after 7 days
- Format: functional
- Experimental Setup: 168 h
Give the quantity in µM, number only.

Solved cases below.
O=C(N/N=C/Nc1ccc(Br)cc1)c1ccncc1 : 125
COc1cccc(N/C=N/NC(=O)c2ccncc2)c1 : 250
O=C(N/N=C/Nc1cccc(O)c1)c1ccncc1 : 250
O=C(N/N=C/Nc1cccc(Br)c1)c1ccncc1 : 250
COc1ccc(N/C=N/NC(=O)c2ccncc2)cc1 : 250

[Q] Requested field: MIC. Item: `O=C(N/N=C/Nc1cc(Cl)ccc1O)c1ccncc1`
[A] 125

[Q] Requested field: MIC. Item: `O=C(N/N=C/Nc1ccc(Cl)cc1)c1ccncc1`
[A] 125

[Q] Requested field: MIC. Item: `O=C(N/N=C/Nc1ccc(F)cc1)c1ccncc1`
[A] 250

---

Collected MIC values appear next to each entry.
- Test system: Mycobacterium kansasii
- Experiment Summary: Antimycobacterial activity against Mycobacterium kansasii CNTC My 335/80 after 7 days
- Type: functional
- Experimental Setup: 168 h
Give the quantity in µM, number only.

Solved cases below.
O=C(N/N=C/Nc1cccc(Cl)c1)c1ccncc1 : 125
O=C(N/N=C/Nc1ccc(O)cc1)c1ccncc1 : 250
O=C(N/N=C/Nc1cccc(C(F)(F)F)c1)c1ccncc1 : 125

[Q] Requested field: MIC. Item: `O=C(N/N=C/Nc1ccc(C(F)(F)F)cc1)c1ccncc1`
[A] 250

[Q] Requested field: MIC. Item: `O=C(N/N=C/Nc1ccc(F)c(Cl)c1)c1ccncc1`
[A] 250
